B1: Connector enhancer of kinase suppressor of ras 2, residues 9 to 71; numbered along this chain, Q8WXI2 (parent)
chain: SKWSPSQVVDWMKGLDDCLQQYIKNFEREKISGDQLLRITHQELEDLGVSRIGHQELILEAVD

Variants of: B1
Experiment: abundance fitness (aPCA) (normalised: wild type 0, dead -1); higher = more abundant; growth selection in yeast, the domain comes from the species named
Conditions: Homo sapiens
Listing of entries alongside the reported abundance fitness.

Solved entries:
R38G    -0.106
Q42N    -0.228
L44S    -0.784
N25E    -0.168
C18Q    -0.124

Request: Hello, please tell me recorded abundance fitness for this one: F26I
Response: -0.356

Request: Hello, please tell me recorded abundance fitness for this one: E45M
Response: -0.066

Request: Hello, please tell me recorded abundance fitness for this one: D17C
Response: -0.06

Request: Hello, please tell me recorded abundance fitness for this one: L44D
Response: -0.657

Request: Hello, please tell me recorded abundance fitness for this one: F26R
Response: -0.867

Request: Hello, please tell me recorded abundance fitness for this one: Q35E
Response: -0.172

Request: Hello, please tell me recorded abundance fitness for this one: Q55P
Response: -0.654

Request: Hello, please tell me recorded abundance fitness for this one: L59H
Response: -0.657

Request: Hello, please tell me recorded abundance fitness for this one: F26S
Response: -0.779

Request: Hello, please tell me recorded abundance fitness for this one: L44E
Response: -0.82
